Recorded measurements of Volumetric activity, one per entry
- Protocol Details: Photometric activity determination of 7β-HSDH and mutants (decrease in absorbance at 340 nm, DHCA reduction with NADPH)
- Type: biochemical
- Details: Table 4, variants modified at position 64; 10 mM DHCA, NADPH, KPi pH 8.0
The figure you give is taken to be in U/ml; do not add the unit.

Data request, read-out Volumetric activity, for 7β-HSDH [R64C]: 7β-HSDH mutant, R in position 64 replaced by C (protein, UniProt A4ECA9 1-263, looked up, variant R64C) 7beta-hydroxysteroid …: MNLREKYGEWGLILGATEGVGKAFCEKIAAGGMNVVMVGRREEKLNVLAGEIRETYGVETKVVCADFSQPGAAETVFAATEGLDMGFMSYVACLHSFGKIQDTPWEKHEAMINVNVVTFLKCFHHYMRIFAAQDRGAVINVSSMTGISSSPWNGQYGAGKAFILKMTEAVACECEGTGVDVEVITLGTTLTPSLLSNLPGGPQGEAVMKIALTPEECVDEAFEKLGKELSVIAGQRNKDSVHDWKANHTEDEYIRYMGSFYRD
269.7

Likewise for 7β-HSDH [R64V]: 7β-HSDH mutant, R in position 64 replaced by V (protein, UniProt A4ECA9 1-263, looked up, variant R64V) 7beta-hydroxysteroid …: MNLREKYGEWGLILGATEGVGKAFCEKIAAGGMNVVMVGRREEKLNVLAGEIRETYGVETKVVVADFSQPGAAETVFAATEGLDMGFMSYVACLHSFGKIQDTPWEKHEAMINVNVVTFLKCFHHYMRIFAAQDRGAVINVSSMTGISSSPWNGQYGAGKAFILKMTEAVACECEGTGVDVEVITLGTTLTPSLLSNLPGGPQGEAVMKIALTPEECVDEAFEKLGKELSVIAGQRNKDSVHDWKANHTEDEYIRYMGSFYRD ?
407.7

// data source = patent US10358672B2
